From: patent US5620676A

- Assayed Target: P2Y receptor (turkey erythrocyte membranes) (Meleagris gallopavo, UniProt P49652)
- Construct: from tissue; host or cells: washed turkey erythrocytes, ghosts prepared by hypotonic lysis
- Sequence (P49652 whole entry): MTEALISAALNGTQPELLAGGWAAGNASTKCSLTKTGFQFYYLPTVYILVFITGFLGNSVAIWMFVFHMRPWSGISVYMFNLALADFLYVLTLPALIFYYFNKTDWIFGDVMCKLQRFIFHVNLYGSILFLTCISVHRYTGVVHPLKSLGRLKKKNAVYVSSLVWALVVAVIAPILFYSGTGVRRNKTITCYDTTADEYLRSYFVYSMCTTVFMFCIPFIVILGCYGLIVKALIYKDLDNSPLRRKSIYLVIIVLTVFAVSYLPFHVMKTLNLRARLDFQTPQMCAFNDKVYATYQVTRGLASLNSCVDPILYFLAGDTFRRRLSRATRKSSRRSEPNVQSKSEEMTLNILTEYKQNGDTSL
- Procedure Summary: Stimulation of phospholipase C (inositol phosphate formation) in turkey erythrocyte membranes
- Format: biochemical
- Condition Parameters: turkey erythrocyte membranes; read-out: K0.5
Below is a list of entries, each paired with its recorded EC50 value.

Compound	Experimental Result
Nc1ccc(CCSc2nc(N)c3ncn([C@@H]4O[C@H](COP(=O)(O)OP(=O)(O)OP(=O)(O)O)[C@@H](O)[C@H]4O)c3n2)cc1	5 to 30 nM
N#CSCCCCCCCSc1nc(N)c2ncn([C@@H]3O[C@H](COP(=O)(O)OP(=O)(O)OP(=O)(O)O)[C@@H](O)[C@H]3O)c2n1 [2-[(7-Thiocyanatoheptyl)thio]-ATP]	5 to 30 nM

We next turn to a different compound, shown below.
The compound "CCCCCCSc1nc(N)c2ncn([C@@H]3O[C@H](COP(=O)(O)OP(=O)(O)OP(=O)(O)O)[C@@H](O)[C@H]3O)c2n1" showed EC50 equal to 5 to 30 nM
